- assay.name: HLM stability determination
- Type: in vitro ADME, human
- recorded.conditions: HLM 500 μg/ml, 1 μM compound, NADPH, relative to 0 min
quantity: Stability HLM % @ 30 min (%)
Give your result in % as a bare value.

Per the record, COc1ccc(C2CCN(c3ccn[nH]3)CC2)cc1 [Compound 19] has Stability HLM % @ 30 min of 89

The reported Stability HLM % @ 30 min of the molecule c1ccc(CC2CCN(c3ccn[nH]3)CC2)cc1 [Compound 2, 4-Benzyl-1-(1H-pyrazol-5-yl)piperidine] was 61

molecule COc1ccc(C2CCN(c3cn[nH]c3)CC2)c(F)c1 [Compound 47] , Stability HLM % @ 30 min observed: 100

Per the record, Cc1ccc(C2CCN(c3ccn[nH]3)CC2)cc1 [Compound 23] has Stability HLM % @ 30 min of 61
